# credit: patent US20140065163A1

Target: T1, macaca GM-CSF (Macaca mulatta (identical in Macaca …, UniProt Q0MUT8 18-144 (Chlorocebus aethiops entry), limits assumed))
T1 chain: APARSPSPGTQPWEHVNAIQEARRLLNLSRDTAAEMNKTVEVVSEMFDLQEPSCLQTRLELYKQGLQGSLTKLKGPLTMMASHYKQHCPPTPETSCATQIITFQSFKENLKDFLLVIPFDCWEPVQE
Experiment: cell-based or functional assay
Exercise: state measured IC50, inhibition of GM-CSF induced TF-1 proliferation (32 pM GM-CSF) for each of the binders provided.
Answers are plain numbers, in pM.

Recorded IC50, inhibition of GM-CSF induced TF-1 proliferation (32 pM GM-CSF), per entry:
| binder | meas value |
| --- | --- |
| MSB0010602 4K21 (4K21 hVH S55K-T62S hVL S27eY-N28I-H34S-N53R-H93Y) (antibody, V domains shown, IgG) VH: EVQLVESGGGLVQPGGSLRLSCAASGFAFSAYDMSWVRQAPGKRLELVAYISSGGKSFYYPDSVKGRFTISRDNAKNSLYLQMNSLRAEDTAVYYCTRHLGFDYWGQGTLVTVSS VL: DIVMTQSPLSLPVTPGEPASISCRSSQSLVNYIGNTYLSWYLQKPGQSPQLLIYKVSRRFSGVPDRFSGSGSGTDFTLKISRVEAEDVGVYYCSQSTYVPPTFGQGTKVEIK | 24 |
| MSB0010600 4K21 (4K21 hVH S55R-T62S hVL S27eY-N28I-H34S-N53R-H93Y) (antibody, V domains shown) VH: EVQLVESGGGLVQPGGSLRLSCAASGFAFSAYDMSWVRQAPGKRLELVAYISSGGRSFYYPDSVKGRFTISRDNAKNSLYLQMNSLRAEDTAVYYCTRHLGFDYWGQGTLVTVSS VL: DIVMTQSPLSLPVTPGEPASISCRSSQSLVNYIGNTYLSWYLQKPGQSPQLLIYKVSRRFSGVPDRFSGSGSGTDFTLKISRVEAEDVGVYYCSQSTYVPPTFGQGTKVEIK | 37 |
| humanized parental 4K21 hVH hVL + H93Y (MS100305-A) (antibody, V domains shown) VH: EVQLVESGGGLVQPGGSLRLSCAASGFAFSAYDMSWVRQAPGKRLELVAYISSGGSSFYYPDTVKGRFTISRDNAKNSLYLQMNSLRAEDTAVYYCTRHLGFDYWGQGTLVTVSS VL: DIVMTQSPLSLPVTPGEPASISCRSSQSLVNSNGNTYLHWYLQKPGQSPQLLIYKVSNRFSGVPDRFSGSGSGTDFTLKISRVEAEDVGVYYCSQSTYVPPTFGQGTKVEIK | 96 |

Take each entry in turn and give its IC50, inhibition of GM-CSF induced TF-1 proliferation (32 pM GM-CSF).
1. MSB0010595 4K21 (4K21 hVH S56V-T62S hVL S27eY-N28I-H34S-N53R-H93Y) (antibody, V domains shown) VH: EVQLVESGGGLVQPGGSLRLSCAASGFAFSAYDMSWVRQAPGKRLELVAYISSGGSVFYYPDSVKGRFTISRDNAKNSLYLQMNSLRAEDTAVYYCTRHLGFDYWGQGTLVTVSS VL: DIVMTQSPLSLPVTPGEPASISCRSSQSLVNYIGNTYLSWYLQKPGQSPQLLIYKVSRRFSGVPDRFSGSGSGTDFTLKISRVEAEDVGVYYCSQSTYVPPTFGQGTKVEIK
2. MSB0010601 4K21 (4K21 hVH S55K-T62S hVL N28I-H34S-N53R-H93Y) (antibody, V domains shown, IgG; also called optimized 4K21 antibody) VH: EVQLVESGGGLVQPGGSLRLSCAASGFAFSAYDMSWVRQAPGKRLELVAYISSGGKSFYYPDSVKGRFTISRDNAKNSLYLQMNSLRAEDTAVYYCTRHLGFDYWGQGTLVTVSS VL: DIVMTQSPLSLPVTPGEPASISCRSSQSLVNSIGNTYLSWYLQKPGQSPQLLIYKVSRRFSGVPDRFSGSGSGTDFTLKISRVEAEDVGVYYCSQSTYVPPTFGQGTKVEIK

Response given:
44
53
